Data origin, for the record: ChEMBL document CHEMBL1201862

# Test system: MOLT-4
# assay.name: NCI tumour cell line growth inhibition, 48 h
Activity calls are given as the source filed them. No stated cut-off is given here; in the data, active = GI50 up to about 1.1 µM and inactive = higher.
Outcome codes: TRUE for active, FALSE for inactive

{"molecule": "Cc1ccc(NC(=O)NC(=O)c2ccc([N+](=O)[O-])cc2[N+](=O)[O-])cc1Oc1ncc(Cl)cn1", "class": "TRUE"}
{"molecule": "CCOC(=O)CCNC(=O)c1cc(C)cc2c1Oc1c(cc(C)cc1C(=O)NCCC(=O)OCC)S2", "class": "FALSE"}
{"molecule": "N#CC1(N2CCCC2)CCC2(CC1)OCCO2", "class": "FALSE"}
{"molecule": "Cc1cccc(C(C)O)n1 (stereo not given)", "class": "FALSE"}
{"molecule": "O=C(O)C1C2C=CC(O2)C1C(=O)Nc1ncccn1 (stereo not given)", "class": "FALSE"}
{"molecule": "CCOc1ccccc1NC(=O)C1=C(C)NC(C)=C(C(=O)Nc2ccccc2OCC)C1c1ccc(NC(C)=O)cc1", "class": "FALSE"}
{"molecule": "O=C1Oc2cc3c(c4cccc1c24)OCN(c1ccc(Cl)cc1)C3", "class": "FALSE"}
{"molecule": "N#Cc1nc(-c2cccs2)oc1N", "class": "FALSE"}
{"molecule": "CCCCc1ccc(Nc2ncc3ncn(COCCO)c3n2)cc1", "class": "FALSE"}
{"molecule": "CCOC(=O)c1cc2c(OC)cc(OC)cc2oc1=O", "class": "FALSE"}
{"molecule": "O=C(Cn1nnc(-c2ccccc2)n1)N/N=C/c1cn(Cc2ccc(Cl)cc2Cl)c2ccccc12", "class": "FALSE"}
{"molecule": "Cc1ccccc1C(CCCO)C(=O)O (stereo not given)", "class": "FALSE"}
{"molecule": "COc1cc(=O)n2c3ccccc3n(C)c2c1C#N", "class": "FALSE"}
{"molecule": "O=C1NC2OCC(O)C(O)C2O1 (stereo not given)", "class": "FALSE"}
{"molecule": "COc1ccc2nc3cc(Cl)ccc3c(NCCNC(=O)Cn3c(=O)n(C)c(=O)c4c3nc3c(c(=O)n(C)c(=O)n3C)[n+]4[O-])c2c1", "class": "FALSE"}
{"molecule": "O=C(O)CC(NC(=O)C(F)(F)F)C(=O)NC1Cc2ccccc2OC1=O (stereo not given)", "class": "FALSE"}
{"molecule": "CCOC(=O)N/N=C(/N)Cc1ccc(Cl)cc1", "class": "FALSE"}
{"molecule": "Nc1ccc(C(=O)O)cc1.Nc1nc(N)c2nc[nH]c2n1", "class": "FALSE"}
{"molecule": "C1=C(c2ccccc2)SC=C(c2ccccc2)S1", "class": "FALSE"}
{"molecule": "COc1cc(/C=C2\\C[C@H]3[C@@H]4CCC5=CC(=O)CC[C@]5(C)[C@H]4CC[C@]3(C)C2=O)cc(OC)c1OC", "class": "FALSE"}

* * *

# Test system: K562
# assay.name: NCI tumour cell line growth inhibition, 48 h
The source made the active and inactive calls. Cut-off read from the data, not from the text of the source: active = GI50 up to about 1.1 µM and inactive = higher.

{"molecule": "Cc1ccc(S(=O)(=O)ON2C(=O)c3c(N)c(C#N)c(-c4ccccc4)c(-c4ccccc4)c3C2=O)cc1", "GI50": "6.41 µM (inactive)"}
{"molecule": "COc1ccc(Nc2nc(NNC(=O)Cc3ccccc3)nc(NNC(=O)c3ccncc3)n2)cc1", "GI50": "> 10 µM (inactive)"}
{"molecule": "CC(=O)OC1C2CCC3C(C)(O)C4CC(O)C(C)(C)C4(O)C(O)CC13CC2(C)O (centres undefined)", "GI50": "> 100 µM (inactive)"}
{"molecule": "N#Cc1ccc(-n2c3ccccc3c3ccc4c(c32)C(=O)C=CC4=O)cc1", "GI50": "1.29 µM (inactive)"}
{"molecule": "CN(C)c1ccc(/C=C2\\N=C(c3ccccc3)N(/N=C3\\C(=O)Nc4ccccc43)C2=O)cc1", "GI50": "32 µM (inactive)"}
{"molecule": "COc1cc2c(cc1O)C1CC(CC3CCCCN31)OC(=O)/C=C\\c1ccc(O)c-2c1 (centres undefined)", "GI50": "28 µM (inactive)"}
{"molecule": "CCOC1=C2N=C(Cc3ccccc3F)N=C2C(=O)c2ccccc21", "GI50": "> 100 µM (inactive)"}
{"molecule": "Cc1c(C)c(C)c(CSC(=N)N)c(C)c1C", "GI50": "12.2 µM (inactive)"}
{"molecule": "O=C(O)C1C2C=CC(O2)C1C(=O)Nc1ncccn1 (centres undefined)", "GI50": "97.9 µM (inactive)"}
